Target entity: d-enCas12a (Acidaminococcus sp., UniProt U2UMQ6 1-1307, E174R;S542R;K548R;D908A;E993A;D1235A)
Protocol text: Spec-seq (native PAGE EMSA with sequencing of bound and unbound); 25 mM Tris-HCl pH 7.4, 150 mM KCl, 5 mM MgCl2, 10% glycerol, 1 mM DTT, 40 ng/uL salmon sperm DNA; 400 nM Cas12a, 480 nM crRNA, 50 nM library, 37 C 1 h; native PAGE at room temperature; high values mean tight binding;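 note: relative affinity from the bound to unbound sequence frequency ratio in Spec-seq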
Condition set: protein: recombinant
Here the recorded binding signal is given for each entry.
Output spec: scalar in lnKA, unitless text.

Record excerpt, results attached:
Binder	Readout number
AGGA (dsDNA) DNA 1: GCTATCTAGTGCTCAGTACGCACTGAGGAAGGAAACTTCTGGCAGGACCAGGTCATGAGATCGGAAGAGCACACGTCTGAACTCCAGTCA DNA 2: TGACTGGAGTTCAGACGTGTGCTCTTCCGATCTCATGACCTGGTCCTGCCAGAAGTTTCCTTCCTCAGTGCGTACTGAGCACTAGATAGC RNA: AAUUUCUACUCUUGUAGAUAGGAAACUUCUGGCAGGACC	-5.52
CTTA (dsDNA) DNA 1: GCTATCTAGTGCTCAGTACGCACTGCTTAAGGAAACTTCTGGCAGGACCAGGTCATGAGATCGGAAGAGCACACGTCTGAACTCCAGTCA DNA 2: TGACTGGAGTTCAGACGTGTGCTCTTCCGATCTCATGACCTGGTCCTGCCAGAAGTTTCCTTAAGCAGTGCGTACTGAGCACTAGATAGC RNA: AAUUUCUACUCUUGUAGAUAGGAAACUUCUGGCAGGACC	-0.581
TCAC (dsDNA) DNA 1: GCTATCTAGTGCTCAGTACGCACTGTCACAGGAAACTTCTGGCAGGACCAGGTCATGAGATCGGAAGAGCACACGTCTGAACTCCAGTCA DNA 2: TGACTGGAGTTCAGACGTGTGCTCTTCCGATCTCATGACCTGGTCCTGCCAGAAGTTTCCTGTGACAGTGCGTACTGAGCACTAGATAGC RNA: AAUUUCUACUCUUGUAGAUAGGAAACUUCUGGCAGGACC	-5.3
TGCC (dsDNA) DNA 1: GCTATCTAGTGCTCAGTACGCACTGTGCCAGGAAACTTCTGGCAGGACCAGGTCATGAGATCGGAAGAGCACACGTCTGAACTCCAGTCA DNA 2: TGACTGGAGTTCAGACGTGTGCTCTTCCGATCTCATGACCTGGTCCTGCCAGAAGTTTCCTGGCACAGTGCGTACTGAGCACTAGATAGC RNA: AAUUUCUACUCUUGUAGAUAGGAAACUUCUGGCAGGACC	-1.44

Lab note: GTAA (dsDNA) DNA 1: GCTATCTAGTGCTCAGTACGCACTGGTAAAGGAAACTTCTGGCAGGACCAGGTCATGAGATCGGAAGAGCACACGTCTGAACTCCAGTCA DNA 2: TGACTGGAGTTCAGACGTGTGCTCTTCCGATCTCATGACCTGGTCCTGCCAGAAGTTTCCTTTACCAGTGCGTACTGAGCACTAGATAGC RNA: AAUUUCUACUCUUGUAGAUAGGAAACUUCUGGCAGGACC gave binding signal of -5.51
